Reference source: ChEMBL document CHEMBL1961873

Hi there, I'd appreciate the recorded inhibition for every entry that follows.
# TARGET OR SYSTEM: Testis-specific serine/threonine-protein kinase 1 (Homo sapiens) (UniProt Q9BXA7);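 also: reported value is the mean inhibition, from the GSK PKIS kinase screening panel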
# Sequence (Q9BXA7 whole entry): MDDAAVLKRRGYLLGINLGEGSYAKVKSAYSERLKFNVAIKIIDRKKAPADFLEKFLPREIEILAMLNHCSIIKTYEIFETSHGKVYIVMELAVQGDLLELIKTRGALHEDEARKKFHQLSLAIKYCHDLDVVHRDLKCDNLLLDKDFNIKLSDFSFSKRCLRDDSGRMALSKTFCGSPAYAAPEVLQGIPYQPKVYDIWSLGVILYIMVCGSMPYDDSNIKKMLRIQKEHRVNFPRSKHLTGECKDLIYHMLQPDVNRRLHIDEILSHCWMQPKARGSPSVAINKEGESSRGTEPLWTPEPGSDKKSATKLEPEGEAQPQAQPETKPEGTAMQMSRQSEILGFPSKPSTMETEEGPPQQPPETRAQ
# RECORDED CONDITIONS: at 1 µM
Numbers only, in %.

Reference set (6 entries):
mol_smiles=NS(=O)(=O)c1cccc(-c2cc3ccncc3cc2OCc2ccccc2)c1 obs_value=0.96
mol_smiles=Nc1ccc(C#Cc2cncnc2Nc2ccc(OCc3cccc(F)c3)c(Cl)c2)cc1 obs_value=2.62
mol_smiles=Cc1nc(-c2ccccc2)n2nc(NCCCN3CCOCC3)ncc12 obs_value=3.44
mol_smiles=Cc1ccc(NC(=O)CC2CC2)cc1-c1ccc(C(=O)NCC2CC2)cc1 obs_value=2.94
mol_smiles=COc1cc(Nc2nccc(-c3cnn4ncccc34)n2)cc(OC)c1 obs_value=16.9
mol_smiles=NS(=O)(=O)c1ccc(-c2cc3ccncc3cc2OCc2ccccc2)cc1 obs_value=3.97

For every record below, what is its inhibition?
1. O=S(=O)(CCOCc1ccc(-c2ccc3ncnc(Nc4ccc(OCc5cccc(F)c5)c(Cl)c4)c3c2)o1)c1ccccc1
2. [O-][S+]1CCN(Cc2ccc(-c3ccc4ncnc(Nc5ccc(OCc6ccccc6)c(Cl)c5)c4c3)o2)CC1

1: 3.29; 2: 2.95

###

# TARGET OR SYSTEM: Tyrosine-protein kinase CSK (Homo sapiens) (UniProt P41240);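 also: each value is an averaged inhibition reading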
# Sequence (P41240 2-450 limits assumed): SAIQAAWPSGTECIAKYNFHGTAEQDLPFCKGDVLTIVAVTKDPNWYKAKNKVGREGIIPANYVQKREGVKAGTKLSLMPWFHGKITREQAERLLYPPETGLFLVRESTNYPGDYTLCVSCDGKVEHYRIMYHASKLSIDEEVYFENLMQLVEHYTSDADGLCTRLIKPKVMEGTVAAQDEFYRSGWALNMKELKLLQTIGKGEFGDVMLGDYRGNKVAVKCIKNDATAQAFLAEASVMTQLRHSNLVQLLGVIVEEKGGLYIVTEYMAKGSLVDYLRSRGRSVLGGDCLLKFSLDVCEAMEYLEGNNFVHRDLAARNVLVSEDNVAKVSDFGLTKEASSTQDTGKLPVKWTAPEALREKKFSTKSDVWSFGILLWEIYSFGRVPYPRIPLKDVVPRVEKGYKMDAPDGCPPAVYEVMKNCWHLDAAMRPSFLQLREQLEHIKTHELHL
# RECORDED CONDITIONS: at 1 µM
Hi there, I'd appreciate the recorded inhibition for every entry that follows.
# output: number + unit

Reference set (2 entries):
mol_smiles=Nc1nccc(-c2c(-c3ccc(F)cc3)nn3cc(C(F)(F)F)ccc23)n1 obs_value=1.17%
mol_smiles=COC(=O)c1ccc2c(c1)C(=Cc1cc(Br)c(O)c(Br)c1)C(=O)N2 obs_value=5.89%

For every record below, what is its inhibition?
1. CCn1c(-c2nonc2N)nc2c(C#CC(C)(C)O)nc(OCCNC)cc21
2. CCOc1nccc2c1nc(-c1nonc1N)n2CC

1. 5.91%
2. 7.45%

###

Hi there, I'd appreciate the recorded inhibition for every entry that follows.
# TARGET OR SYSTEM: Proto-oncogene tyrosine-protein kinase ROS (Homo sapiens);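 also: value given is the mean percent inhibition of ROS kinase activity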
# RECORDED CONDITIONS: at 1 µM
# output: number + unit

Reference set (5 entries):
mol_smiles=CN1CCN(C(=O)c2ccc(NC(=O)Nc3ccc(N(C)c4ccnc(Nc5ccc(CS(C)(=O)=O)cc5)n4)cc3)cc2)CC1 target_or_system="Proto-oncogene tyrosine-protein kinase ROS (Homo sapiens)" obs_value=54.1%
mol_smiles=Cc1cc(O)cc(C)c1/C=C/c1cncc(C(=O)N(C)C)c1 target_or_system="Proto-oncogene tyrosine-protein kinase ROS (Homo sapiens)" obs_value=7.84%
mol_smiles=Nc1nccc(-c2c(-c3ccc(F)cc3)ncn2CCCN2CCOCC2)n1 target_or_system="Proto-oncogene tyrosine-protein kinase ROS (Homo sapiens)" obs_value=5.81%
mol_smiles=CS(=O)(=O)Nc1cccc(-c2ccc3c(NC(=O)C4CC4)n[nH]c3c2)c1 target_or_system="Proto-oncogene tyrosine-protein kinase ROS (Homo sapiens)" obs_value=2.79%
mol_smiles=NC(=O)c1cccc(Nc2nccc(Nc3cccc(F)c3)n2)c1 target_or_system="Proto-oncogene tyrosine-protein kinase ROS (Homo sapiens)" obs_value=60.8%

For every record below, what is its inhibition?
1. CN(C)CCCn1c(-c2nonc2N)nc2cnccc21
2. CCOc1nccc2c1nc(-c1nonc1N)n2CC
3. O=C1Nc2ccccc2/C1=C/Nc1ccc2[nH]c(=O)[nH]c2c1
4. Cc1ccc(Nc2ccnc(Nc3cccc(C(N)=O)c3)n2)cc1O
5. NS(=O)(=O)c1ccc(Nc2cc(-c3cccc(O)c3)n[nH]2)cc1

1. 4.62%
2. 11.8%
3. 11.8%
4. 61.4%
5. 12.1%
